- assayOverview: in vitro
- runConditions: PAMPA, pH 7.4
Field 'label' (enum: Criterion met / Criterion not met). Set to Criterion met when Papp at 5 h is strictly under 0.7 ×10⁻⁶ cm/s; else Criterion not met.

Reference set (3 entries):
Dear colleague, could you confirm whether Papp at 5 h of CCN(CC)CCNc1nc(/C=C/c2ccc(C(C)C)cc2)nc2ccc(F)cc12 falls below 0.7 ×10⁻⁶ cm/s? Thanks.
Criterion not met

Moving on to the next molecule: CC(C)c1ccc(/C=C/c2nc(NCCN(C)C)c3cc(F)ccc3n2)cc1
Criterion not met

Thanks! And CN(C)CCNc1nc(/C=C/c2ccc(F)cc2)nc2ccccc12 ?
Criterion not met

More entries:
Input CCN(CC)CCNc1nc(/C=C/c2ccc(S(C)(=O)=O)cc2)nc2ccc(Cl)cc12 ; condition: Papp at 5 h strictly below 0.7 ×10⁻⁶ cm/s. Does it hold?
Criterion met

Input CSc1ccc(/C=C/c2nc(NCCN(C)C)c3ccccc3n2)cc1
Criterion not met

Also CC(C)c1ccc(/C=C/c2nc(NCCN(C)C)c3cc(Cl)ccc3n2)cc1 , if possible.
Criterion not met

Please give the result for CN(C)CCNc1nc(/C=C/c2ccc(S(C)(=O)=O)cc2)nc2ccc(Cl)cc12 too.
Criterion met

Param item: CN(C)CCCNc1nc(/C=C/c2ccc(S(C)(=O)=O)cc2)nc2ccc(Cl)cc12
Criterion met

Let us now turn to CCN(CC)CCCNc1nc(/C=C/c2ccc(OC)cc2)nc2ccc(Br)cc12
Criterion not met

Value source: ChEMBL document CHEMBL4311995
